molecular target: ATM (Homo sapiens, UniProt Q13315); construct: endogenous in cells; assay: ATM cellular potency assay (pATM Ser1981 in irradiated HT29 cells); conditions: X-ray irradiation, pATM (Ser1981); read-out: Assay a) ATM Cell IC50
Sequence (Q13315 whole entry): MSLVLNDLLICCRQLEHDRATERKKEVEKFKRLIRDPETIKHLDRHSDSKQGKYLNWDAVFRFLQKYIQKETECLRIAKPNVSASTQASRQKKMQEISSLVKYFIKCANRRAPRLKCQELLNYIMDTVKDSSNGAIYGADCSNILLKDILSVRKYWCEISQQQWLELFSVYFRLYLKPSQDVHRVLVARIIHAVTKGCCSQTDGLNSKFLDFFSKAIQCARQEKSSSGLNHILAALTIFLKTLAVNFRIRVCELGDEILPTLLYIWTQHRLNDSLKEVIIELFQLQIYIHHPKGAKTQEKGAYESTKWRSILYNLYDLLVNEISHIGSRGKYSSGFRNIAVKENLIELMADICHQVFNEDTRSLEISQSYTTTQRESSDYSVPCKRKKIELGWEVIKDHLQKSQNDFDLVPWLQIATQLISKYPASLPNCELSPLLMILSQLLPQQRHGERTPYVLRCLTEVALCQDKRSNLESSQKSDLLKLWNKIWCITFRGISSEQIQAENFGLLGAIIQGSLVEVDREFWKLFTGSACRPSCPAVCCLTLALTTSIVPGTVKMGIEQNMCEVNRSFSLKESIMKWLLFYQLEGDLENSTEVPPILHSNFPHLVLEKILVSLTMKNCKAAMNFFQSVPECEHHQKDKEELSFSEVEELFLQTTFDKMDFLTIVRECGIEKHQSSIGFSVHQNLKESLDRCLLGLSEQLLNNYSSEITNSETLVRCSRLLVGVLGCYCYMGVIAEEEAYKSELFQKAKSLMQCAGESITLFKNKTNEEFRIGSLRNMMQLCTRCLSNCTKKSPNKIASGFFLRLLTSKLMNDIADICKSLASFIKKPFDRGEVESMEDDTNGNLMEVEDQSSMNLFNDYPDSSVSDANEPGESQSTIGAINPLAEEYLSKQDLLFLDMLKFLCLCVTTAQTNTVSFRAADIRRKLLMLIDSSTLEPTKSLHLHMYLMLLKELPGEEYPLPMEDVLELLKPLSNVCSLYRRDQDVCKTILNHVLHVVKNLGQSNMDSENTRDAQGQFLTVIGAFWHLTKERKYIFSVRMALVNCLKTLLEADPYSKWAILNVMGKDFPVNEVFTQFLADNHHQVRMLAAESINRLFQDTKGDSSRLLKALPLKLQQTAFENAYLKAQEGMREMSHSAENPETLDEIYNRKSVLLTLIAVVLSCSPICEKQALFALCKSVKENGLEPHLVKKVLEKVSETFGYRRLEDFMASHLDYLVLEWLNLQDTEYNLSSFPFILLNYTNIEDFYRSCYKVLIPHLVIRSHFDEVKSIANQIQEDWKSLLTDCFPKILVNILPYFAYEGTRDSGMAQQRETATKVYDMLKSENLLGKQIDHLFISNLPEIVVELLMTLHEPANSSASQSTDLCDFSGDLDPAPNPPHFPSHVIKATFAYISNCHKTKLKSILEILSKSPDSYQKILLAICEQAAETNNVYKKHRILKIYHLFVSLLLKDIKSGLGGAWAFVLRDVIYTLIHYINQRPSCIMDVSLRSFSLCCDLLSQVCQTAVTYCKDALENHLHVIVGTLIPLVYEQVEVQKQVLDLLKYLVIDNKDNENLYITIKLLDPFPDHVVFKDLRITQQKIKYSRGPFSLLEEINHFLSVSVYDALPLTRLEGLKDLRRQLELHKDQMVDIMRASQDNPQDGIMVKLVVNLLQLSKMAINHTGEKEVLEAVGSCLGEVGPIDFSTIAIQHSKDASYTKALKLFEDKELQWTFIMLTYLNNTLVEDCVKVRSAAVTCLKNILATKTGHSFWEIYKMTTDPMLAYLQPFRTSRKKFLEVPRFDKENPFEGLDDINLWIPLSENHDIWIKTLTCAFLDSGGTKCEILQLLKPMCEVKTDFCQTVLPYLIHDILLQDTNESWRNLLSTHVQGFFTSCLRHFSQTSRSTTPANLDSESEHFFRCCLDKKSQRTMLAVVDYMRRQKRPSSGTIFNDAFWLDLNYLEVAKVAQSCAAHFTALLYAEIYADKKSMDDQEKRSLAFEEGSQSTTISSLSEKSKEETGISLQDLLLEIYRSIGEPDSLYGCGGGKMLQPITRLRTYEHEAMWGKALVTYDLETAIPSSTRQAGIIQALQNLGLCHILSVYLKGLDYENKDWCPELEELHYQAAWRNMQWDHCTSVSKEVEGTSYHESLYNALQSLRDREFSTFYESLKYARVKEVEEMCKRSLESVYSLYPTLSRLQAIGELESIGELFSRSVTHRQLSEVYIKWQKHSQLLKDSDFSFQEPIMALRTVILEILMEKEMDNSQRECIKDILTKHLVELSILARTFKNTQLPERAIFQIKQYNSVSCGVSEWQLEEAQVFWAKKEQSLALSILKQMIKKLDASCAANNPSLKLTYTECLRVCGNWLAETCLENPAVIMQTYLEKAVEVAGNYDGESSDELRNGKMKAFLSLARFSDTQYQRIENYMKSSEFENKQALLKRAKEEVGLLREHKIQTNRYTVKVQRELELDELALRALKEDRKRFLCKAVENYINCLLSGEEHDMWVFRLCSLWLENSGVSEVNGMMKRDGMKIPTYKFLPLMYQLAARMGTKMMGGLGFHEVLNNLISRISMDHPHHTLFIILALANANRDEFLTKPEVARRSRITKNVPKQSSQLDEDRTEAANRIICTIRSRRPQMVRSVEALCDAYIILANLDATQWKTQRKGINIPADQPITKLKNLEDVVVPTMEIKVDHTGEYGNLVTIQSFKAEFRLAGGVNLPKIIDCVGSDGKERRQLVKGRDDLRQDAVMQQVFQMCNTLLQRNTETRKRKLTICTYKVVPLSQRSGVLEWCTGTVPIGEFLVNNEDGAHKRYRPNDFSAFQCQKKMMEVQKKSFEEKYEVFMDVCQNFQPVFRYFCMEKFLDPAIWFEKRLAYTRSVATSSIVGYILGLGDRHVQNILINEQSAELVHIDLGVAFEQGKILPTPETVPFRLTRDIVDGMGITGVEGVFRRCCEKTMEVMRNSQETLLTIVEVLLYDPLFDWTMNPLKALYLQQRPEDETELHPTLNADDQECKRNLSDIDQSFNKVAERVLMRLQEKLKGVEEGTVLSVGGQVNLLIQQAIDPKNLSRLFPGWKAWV
Observable: IC50 (nM)
Write the answer as a number in nM, unit excluded.

The molecule listed as Cn1c(=O)n(C2CCOCC2)c2c3cc(-c4ccc(OCCC[N+](C)(C)[O-])nc4)ccc3ncc21 shows IC50 equal to 5.4
